molecular target: Mitogen-activated protein kinase 3 (Homo sapiens, UniProt P27361)
Sequence (P27361 whole entry): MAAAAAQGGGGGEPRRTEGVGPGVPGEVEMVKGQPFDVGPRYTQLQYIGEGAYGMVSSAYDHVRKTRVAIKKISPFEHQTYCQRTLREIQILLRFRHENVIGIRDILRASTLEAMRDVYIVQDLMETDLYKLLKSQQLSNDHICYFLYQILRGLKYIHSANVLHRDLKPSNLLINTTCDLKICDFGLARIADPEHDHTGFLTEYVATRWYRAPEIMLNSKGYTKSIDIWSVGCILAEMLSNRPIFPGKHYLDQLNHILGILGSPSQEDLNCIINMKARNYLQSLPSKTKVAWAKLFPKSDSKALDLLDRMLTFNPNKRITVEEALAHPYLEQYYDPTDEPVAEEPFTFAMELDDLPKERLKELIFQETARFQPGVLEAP
Quick reference: ΔTm of the listed items.
Use °C as the unit, but write only the number.

>>> observed_result("COc1cc2ncnc(Nc3cccc(O)c3)c2cc1OC")
-0.2
>>> observed_result("COc1cc(/C=C/C(=O)CC(=O)/C=C/c2ccc(O)c(OC)c2)ccc1O [CURCUMIN]")
0.8
>>> observed_result("O=c1c(O)c(-c2ccc(O)c(O)c2)oc2cc(O)cc(O)c12 [QUERCETIN]")
1.9
>>> observed_result("Cc1cc2ncc(-c3ccccc3)nc2cc1C")
-0.6

Incoming: I'm curious: which ΔTm was measured for `O=C1Nc2ccccc2/C1=C1/Nc2ccccc2/C1=N\O` tested on Mitogen-activated protein kinase 3 (Homo sapiens, UniProt P27361)?
Outgoing: 0.8

The measurements presented in this section are drawn from ChEMBL document CHEMBL1145498.
